TEST DESCRIPTION: Liver microsomes stability, mouse
MEASUREMENT PARAMETERS: male, microsomes
MEASURED ATTRIBUTE: half-life at 2 μM

molecule="CN1CCC[C@@H]1C[C@H]1CNc2ccc(F)cc21 [(R),(R)-I-47]" assay_value="6.51 h"
molecule="COc1ccc2c(c1)C(C[C@H]1CCCN1C)CN2 (stereo partly drawn) [(R)-I-54]" assay_value="0.313 h"
molecule="COc1cccc2c1C(C[C@H]1CCCN1C)CN2 (stereo partly drawn) [(R)-I-94]" assay_value="< 0.0752 h"
molecule="COc1ccc2c(c1)C(C[C@H]1CCCN1)CN2 (stereo partly drawn) [(R)-I-165]" assay_value="1.55 h"
